Hello, the source for this data is patent US20170212130A1, in case you need it.

TARGET: T1, mCherry (Discosoma)
T1 construct: Immunogen is mCherry-His6; SPR says recombinant mCherry; also called recombinant mCherry-His6; Discosoma mCherry
MEASUREMENT_NOTES: SPR, mCherry immobilized
The reader will find reported Kd values listed item by item below.
MEASURED_PARAMETER: Kd (nM)

LaM-3 (VHH) VHH: QVQLVQSGGGLVQAGGSLRLSCAASGRTFSDIAVGWFRQTPGKEREFVAAISWSGLIINYGDSVEDRFTISRDNAKSAVYLQMNSLKPEDTAVYYCAARIGMNYYYAREIEYPYWGQGTQVTVS
1.9
LaM-8 (VHH) VHH: QVQLVESGGGLVQAGGSLRLSCAVSGRPFSEYNLGWFRQAPGKEREFVARIRSSGTTVYTDSVKGRFSASRDNAKNMGYLQLNSLEPEDTAVYYCAMSRVDTDSPAFYDYWGQGTQVTVST
63
LaM-6 (VHH) VHH: QVQLVESGGGLVQAGGSLRLSCVASGSAPSFFAMAWYRQSPGNERELVAALSSLGSTNYADSVKGRFTISMDNAKNTVYLQMNNVNAEDTAVYYCAAGDFHSCYARKSCDYWGQGTQVTVS
0.26
LaM-1 (VHH) VHH: QVQLVESGGGLVQAGDSLRLSCAASGRTFENYAMGWFRQAPGKEREFVGAVSWGGGRTYYADNVKGRFTISRDNAKKNTVYLQMNSLKPEDTAVYYCAAKSVLTIATMRVPDEYNYWGQGTQVTVS
22
